Read-out record for UniProtKB P04183: IC50
Sequence (P04183 whole entry): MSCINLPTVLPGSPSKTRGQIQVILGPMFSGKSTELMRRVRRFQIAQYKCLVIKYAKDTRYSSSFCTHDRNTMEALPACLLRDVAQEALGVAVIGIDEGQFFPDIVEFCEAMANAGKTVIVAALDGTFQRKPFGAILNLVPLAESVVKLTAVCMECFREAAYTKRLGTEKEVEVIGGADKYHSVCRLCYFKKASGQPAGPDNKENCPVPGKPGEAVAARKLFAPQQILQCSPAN

Field: example entries. Status: answers known.
O=c1nc2oc(-c3cccc(OCCCCCCF)c3)cc2cn1[C@H]1C[C@H](O)[C@@H](CO)O1    > 500 µM
O=c1nc2oc(-c3ccc(O)cc3)cc2cn1[C@H]1C[C@H](O)[C@@H](CO)O1    > 500 µM

Incoming: So what does the record say about IC50 for `O=c1nc2oc(-c3ccc(OCCF)cc3)cc2cn1[C@H]1C[C@H](O)[C@@H](CO)O1` ?
Outgoing: > 500 µM
